Taken from the nanobody polyreactivity screen of Harvey et al. (2022).

# ASSAY DETAILS: yeast display, Sf9 membrane polyspecificity reagent, FACS + sequencing; frameworks hold sequencing errors
QUANTITY MEASURED: polyreactivity (PSR sort gate)

Previously resolved entries follow.
1) QVQLVESGGGLVQAGGSLRLSCAASGGTLGTYAMGWYRQAPGKERELVASIDSGDSTYYADSVKGRFTISRDNAKNTVYLQMNSLKPEDTAVYYCAAAYFRRYTTTWYGYEYWGQGTQVTVSS = low polyreactivity
2) QVHLVESGGGLVQAGGSLRLSCAASGYIFDIYAMGWYRQAPGKERELVAVITRSGGGTYYADSVKGRFTISRDNAKNTVYLQMNSLKPEDTAVYYCAAESYVYGGSDYDYWGQGTQVTVSS = low polyreactivity
3) QVQLVESGGGLVQAGGSLRLSCAASGSSFNYNTMGWYRQAPGKERELVADISWSGGSTYYADSVKGRFTISRDNAKNTVYLQMNSLKPEDTAVYYCAADFGLFPYVGTGYYYWGQGTQVTVSS = low polyreactivity
4) QVQLVESGGGLVQAGGSLRLSCAASGSIFWPYAMGWYRQAPGKERELVAGISRSGGITYYADSVKGRFTISRDNAKNTVYLQMNSLKPEDTAVYYCARYQEWRQEYDYWGQGTQVTVSS = high polyreactivity
5) QVQLVESGGGLVQAGGSLRLSCAASGFTFFTYAMGWYRQAPGKERELVAAIRWRGSTTYYADSVKGRFTISRDNAKYTVYLQMNSLKPEDTAVYYCAAELRFRQTGLAYWGDYWGQGTQVTVSS = high polyreactivity
6) QVQLVESGGGLVQAGGSLRLSCAASGRTFYKNAMGWYRQAPGKERELVAAISSRGGRTTYADSVKGRFTISRDNAKNTVYLQMNSLKPEDTAVYYCATDWAQVYHGTTKYYYWGQGTQVTVSS = high polyreactivity
7) QVQLVESGGGLVQAGGSLRLSCGASGSIFPHYAMGWYRQAPGKEREFVSTISGSTGRTYYADSVKGRFTISRDNAKNTVYLQMNSLKPEDTAVYYCATSVGYYLPPIKYDYWGQGTQVTVSS = low polyreactivity
8) QVQLVESGGGLLQAGGSLRLSCAASGSTFGFYALGWFRQAPGKERELVAAISSGGTSTYYADSVKGRFTISRDNAKTTVYLQMNSVIPEDTAVYYCNSDTFQYPSTYDYWGQGTQVTVSS = low polyreactivity

Asked: Look at this sequence and give its reported polyreactivity (PSR sort gate). "QVQLVESGGGLVQAGGSLRLSCAPSGFIYSKYVIGWNRPAPGKERELVAAITRSGSSTYYADSVKGRFTISRDNAKNTDYLQMNSLKPEDTAVYYCAADGGYYDDDYWGQGTQVTVSS"
Given back: high polyreactivity

Asked: Look at this sequence and give its reported polyreactivity (PSR sort gate). "QVQLVESGGGLVQAGGSLRLSCAASGRTFGYNAMGWYIQAPGKERELVAAINWSGASTYYADYVKGRFTISRDNAKNTVYLQMNSLKPEDTAVYYCAADYSYIYGFDYWGQGTQVTVSS"
Given back: low polyreactivity

Asked: Look at this sequence and give its reported polyreactivity (PSR sort gate). "QVQLVESVVGLVQAGGSLRLSCAASGGTFSFNAIGWYRQAPGKETELVAAITQTGDGTYYADSVKGRFTISRDNAKNSVYLQMNIMKPEDTAVYYCNTDSIPFVPWFRFDYWGQGTQVTVSS"
Given back: low polyreactivity
